assay: osmotic lysis modulators in infected erythrocytes, primary screen, PSAC antagonist project, cell-based, P. falciparum Indochina, OD700, 3 h (AID 1156); conditions: higher = more signal, called active from +8 up or from −8 down
Use Fulfilled when the recorded z-score is no lower than -0.2; use Not fulfilled when it is lower.

Given smiles	Label
C[C@@H]1NC(=O)[C@@H](C)COC(=O)[C@H](C)NC(=O)[C@@H](C)COC1=O	Fulfilled
COc1ccc(COC(=O)NN=C2C[C@@H](O)[C@@H](O)[C@@H]3[C@@H]4C(=O)N(C5CCCCC5)C(=O)[C@@H]4CC[C@H]23)cc1	Fulfilled
COC(=O)[C@@H]1CC[C@H](C)[C@@H](c2ccc(C)cc2)N1C(=O)c1ccc(C=NOCC[C@@H]2C=C[C@H](OC(C)=O)[C@@H](COC(C)=O)O2)cc1	Fulfilled
CCN1C(=O)[C@H]2[C@H]3[C@H](O)[C@H](O)CC(=O)[C@@H]3CC[C@H]2C1=O	Not fulfilled
Cc1ccc(S(=O)(=O)N[C@@H]2COC(=O)[C@@H](C)COC(=O)CC=C[C@H]2C)cc1	Not fulfilled
CC(CCC(=O)OC[C@H]1O[C@H](C#Cc2ccccc2)C=C[C@@H]1Oc1ccc(C)cc1)=NO[C@H](C)c1cn([C@H](CO)Cc2ccccc2)nn1	Fulfilled
